measurement.description: Liver-targeted tissue distribution profile study in rats
Type: in vivo, Sprague Dawley rats
measurement.parameters: rat, single 10 mg/kg PO, plasma, 4 h
measure.name: Measured Compound Concentrations Plasma - 4 h

NS(=O)(=O)c1ccc(Cc2c(-c3ccccc3F)nn(-c3nc(C(=O)O)cs3)c2CC2CC2)cc1F	− (0.25 μM≥−)
N#Cc1cc(-c2nn(-c3nc(C(=O)O)cs3)c(CC3CC3)c2Cc2ccc(S(N)(=O)=O)c(F)c2)ccc1F	− (0.25 μM≥−)
NS(=O)(=O)c1ccc(Cc2c(-c3cc(F)cc(F)c3)nn(-c3nc(C(=O)O)cs3)c2CC2CC2)cc1F	− (0.25 μM≥−)
N#Cc1cccc(-c2nn(-c3nc(C(=O)O)cs3)c(CC3CC3)c2Cc2ccc(S(N)(=O)=O)c(F)c2)c1	− (0.25 μM≥−)
NS(=O)(=O)c1ccc(Cc2c(-c3cccc(OCC(F)(F)F)c3)nn(-c3nc(C(=O)O)cs3)c2CC2CC2)cc1F	− (0.25 μM≥−)
NS(=O)(=O)c1ccc(Cc2c(-c3ccc(F)cc3)nn(-c3nc(C(=O)O)co3)c2CC2CC2)cc1F	− (0.25 μM≥−)
NS(=O)(=O)c1ccc(Cc2c(-c3ccc(F)c(F)c3)nn(-c3nc(C(=O)O)cs3)c2CC2CC2)cc1F	− (0.25 μM≥−)
NS(=O)(=O)c1ccc(Cc2c(-c3cc(Cl)cc(Cl)c3)nn(-c3nc(C(=O)O)cs3)c2CC2CC2)cc1F	− (0.25 μM≥−)

Any idea what its Measured Compound Concentrations Plasma - 4 h is? The compound is `NS(=O)(=O)c1ccc(Cc2c(-c3ccc(F)cc3)nn(-c3nc(C(=O)O)cs3)c2CC2CC2)cc1F` − (0.25 μM≥−)

Would you mind doing `NS(=O)(=O)c1ccc(Cc2c(-c3cc(F)c(F)c(F)c3)nn(-c3nc(C(=O)O)cs3)c2CC2CC2)cc1F` as well? − (0.25 μM≥−)

Would you mind doing `NS(=O)(=O)c1ccc(Cc2c(-c3ccc(C(F)F)cc3)nn(-c3nc(C(=O)O)cs3)c2CC2CC2)cc1F` as well? − (0.25 μM≥−)

Would you mind doing `NS(=O)(=O)c1ccc(Cc2c(-c3ccccc3)nn(-c3nc(C(=O)O)cs3)c2CC2CC2)cc1F` as well? − (0.25 μM≥−)

Would you mind doing `NS(=O)(=O)c1ccc(Cc2c(-c3cccc(OC(F)(F)F)c3)nn(-c3nc(C(=O)O)cs3)c2CC2CC2)cc1F` as well? − (0.25 μM≥−)

Would you mind doing `NS(=O)(=O)c1ccc(Cc2c(-c3cccc(C(F)(F)F)c3)nn(-c3nc(C(=O)O)cs3)c2CC2CC2)cc1F` as well? − (0.25 μM≥−)

Would you mind doing `NS(=O)(=O)c1ccc(Cc2c(-c3cccc(F)c3)nn(-c3nc(C(=O)O)cs3)c2CC2CC2)cc1F` as well? − (0.25 μM≥−)

Would you mind doing `NS(=O)(=O)c1ccc(Cc2c(-c3ccc(F)c(Cl)c3)nn(-c3nc(C(=O)O)cs3)c2CC2CC2)cc1F` as well? − (0.25 μM≥−)

Would you mind doing `NS(=O)(=O)c1ccc(Cc2c(-c3cccc(Cl)c3)nn(-c3nc(C(=O)O)cs3)c2CC2CC2)cc1F` as well? − (0.25 μM≥−)

Would you mind doing `NS(=O)(=O)c1ccc(Cc2c(-c3ccc(Cl)cc3)nn(-c3nc(C(=O)O)cs3)c2CC2CC2)cc1F` as well? − (0.25 μM≥−)

Value source: patent US20230183228A1
